- Tested on: POLCO
- ASSAY_SUMMARY: Post-emergence herbicidal action against POLCO
- Format: in vivo, Polygonum convolvulus
- SETUP_CONDITIONS: application rate 80 g/ha, rated visually about 3 weeks after treatment
The following compounds are shown together with reported Herbicidal action against [%] POLCO values.
Kindly provide the numeric value in % only, without the unit symbol.

// below: answered compounds
CCOC(=O)C1C=CC(NC(=O)C2(C(F)(F)F)CC(c3cc(C)cc(C(F)(F)F)c3)=NO2)C1 (mixture of isomers) :: 90
CONC(=O)C1=CCC(NC(=O)C2(C)CC(c3cccc(F)c3)=NO2)C1 (mixture of isomers) :: 80
CC(C)(C)OC(=O)[C@@H]1C=C[C@H](NC(=O)C2(C)CC(c3cc(F)cc(F)c3)=NO2)C1 (stereo partly shown) :: 80

Continue with the compound presented below.
Record COC(=O)[C@@H]1C=C[C@H](NC(=O)C2(OC)CC(c3cc(F)cc(F)c3)=NO2)C1 (stereo partly shown) : what is its Herbicidal action against [%] POLCO with POLCO? 100

---

- Test system: ABUTH
- ASSAY_SUMMARY: Post-emergence herbicidal action against ABUTH
- Assay type: in vivo, Abutilon theophrasti
- SETUP_CONDITIONS: application rate 80 g/ha, rated visually about 3 weeks after treatment
MEASUREMENT_NAME: Herbicidal action against [%] ABUTH (%)
The response must be a number in % with no trailing unit.

Some solved cases for reference:
CCOC(=O)C1C=CC(NC(=O)C2(C(F)(F)F)CC(c3cc(Cl)cc(Cl)c3)=NO2)C1 (mixture of isomers) :: 80
N#Cc1cc(F)cc(C2=NOC(C(=O)N[C@H]3C=C[C@@H](C(=O)OCC(F)(F)F)C3)(C(F)(F)F)C2)c1 (some centres unmarked) :: 90
CCOC(=O)[C@@H]1C=C[C@H](NC(=O)C2(C(F)(F)F)CC(c3cc(C)cc(Cl)c3)=NO2)C1 (some centres unmarked) :: 80

Look up Herbicidal action against [%] ABUTH: C=CC1(C(=O)NC2C=CC(C(=O)N3CCCCO3)C2)CC(c2cc(F)cc(F)c2)=NO1 (mixture of isomers) 80

# repeat for CCOC(=O)C1C=CC(NC(=O)C2(C(F)(F)F)CC(c3cc(F)cc(C#N)c3)=NO2)C1 (mixture of isomers) 80

---

- Test system: PHBPU
- ASSAY_SUMMARY: Post-emergence herbicidal action against PHBPU
- Type: in vivo, Pharbitis purpurea
- SETUP_CONDITIONS: application rate 80 g/ha, rated visually about 3 weeks after treatment
We begin with a simple list: items and their reported Herbicidal action against [%] PHBPU.
Note: unit % is implicit; provide only the numeric part.

I'm curious: which Herbicidal action against [%] PHBPU was measured for C=CC1(C(=O)N[C@H]2CC=C(C(=O)OCCOCC)C2)CC(c2cc(F)cc(F)c2)=NO1 (stereo partly drawn) tested on PHBPU? 90

---

- Test system: STEME
- ASSAY_SUMMARY: Post-emergence herbicidal action against STEME
- Assay type: in vivo, Stellaria media
- SETUP_CONDITIONS: application rate 80 g/ha, rated visually about 3 weeks after treatment
Catalogue of Herbicidal action against [%] STEME readings, one per entry.
Report only the number, with the unit % understood.

CC(C)C(C#N)NC(=O)C1C=CC(NC(=O)C2(C(F)(F)F)CC(c3cc(F)cc(F)c3)=NO2)C1 (mixture of isomers) [II-35] :: 90
CCOCCOC(=O)[C@@H]1C=C[C@H](NC(=O)[C@@]2(C)CC(c3cc(F)cc(F)c3)=NO2)C1 [Example I-093] :: 80
N#Cc1cccc(C2=NOC(C(=O)NC3C=CC(C(=O)O)C3)(C(F)(F)F)C2)c1 (mixture of isomers) [Example I-085] :: 80

Item CC1(C(=O)N[C@H]2CC=C(C(=O)OCc3ccccc3)C2)CC(c2cc(F)cc(F)c2)=NO1 (some centres unmarked) [III-12] has what recorded Herbicidal action against [%] STEME? 80

Can you handle C=CC1(C(=O)NC2C=CC(C(=O)OC)C2)CC(c2cc(F)cc(F)c2)=NO1 (mixture of isomers) [Example I-035] next? 90

One more compound: CC1(C(=O)NC2CC=C(C(=O)NS(C)(=O)=O)C2)CC(c2cccc(F)c2)=NO1 (mixture of isomers) [IV-07] 90

Now try C=CC1(C(=O)NC2C=CC(C(=O)OCc3ccccc3)C2)CC(c2cc(F)cc(F)c2)=NO1 (mixture of isomers) [Example I-033] . 80

Another compound to check: COC(=O)[C@@H]1C=C[C@H](NC(=O)C2(C(F)(F)F)CC(c3ccccc3)=NO2)C1 (some centres unmarked) [Example I-026] 80

Request: COC(=O)C1C=CC(NC(=O)C2(C(F)(F)F)CC(c3cc(C)cc(C(F)(F)F)c3)=NO2)C1 (mixture of isomers) [Example I-048] 90

Quick one: CCOC(=O)C1=CC[C@H](NC(=O)C2(C)CC(c3cc(F)cc(F)c3)=NO2)C1 (some centres unmarked) [III-07] 90

Okay, and CC1(C(=O)N[C@H]2C=C[C@@H](C(=O)OCC(F)(F)F)C2)CC(c2cc(F)cc(F)c2)=NO1 (some centres unmarked) [Example I-010] ? 80

---

- Tested on: POLCO
- ASSAY_SUMMARY: Post-emergence herbicidal action against POLCO
- Type: in vivo, Polygonum convolvulus
- SETUP_CONDITIONS: application rate 80 g/ha, rated visually about 3 weeks after treatment
- Description: [table] 2. Post-emergence herbicidal action against harmful plants and crop plant compatibility Seeds of monocotyledonous and dicotyledonous weeds and crop plants are placed in sandy loam in plastic or wood-fibre pots, covered with soil and cultivated in a greenhouse under controlled growth conditions. 2 to 3 weeks after sowing, the test plants are treated at the one-leaf stage. […]
MEASUREMENT_NAME: Herbicidal action against [%] POLCO (%)
Numeric only. Scale: %

C[C@]1(C(=O)N[C@@H]2C=C(C(=O)O)CC2)CC(c2cc(F)cc(F)c2)=NO1 :: 90
CCOC(=O)C1=CC[C@H](NC(=O)C2(C)CC(c3cc(F)cc(F)c3)=NO2)C1 (some centres unmarked) :: 80
COC(=O)[C@H]1C=C[C@H](NC(=O)[C@@]2(C(F)(F)F)CC(c3cc(F)cc(F)c3)=NO2)C1 :: 80
C=CC1(C(=O)NC2C=CC(C(=O)N3CCCCO3)C2)CC(c2cc(F)cc(F)c2)=NO1 (mixture of isomers) :: 90
Cc1cc(F)cc(C2=NOC(C(=O)N[C@H]3C=C[C@@H](C(=O)OCCCl)C3)(C(F)(F)F)C2)c1 (some centres unmarked) :: 90

Bench note: what Herbicidal action against [%] POLCO did COC(=O)C1C=CC(NC(=O)C2(C(F)(F)F)CC(c3cc(F)cc(F)c3)=NO2)C1 (mixture of isomers) show? 90

Now the same for CC1(C(=O)N[C@H]2C=C[C@@H](C(=O)OCc3ccccc3)C2)CC(c2cc(F)cc(F)c2)=NO1 (some centres unmarked) 90

Query O=C(C1C=CC(NC(=O)C2(C(F)(F)F)CC(c3cc(F)cc(F)c3)=NO2)C1)N1CCCCO1 (mixture of isomers) next 90

Also need CCOC(=O)C1C=CC(NC(=O)C2(C)CC(c3cc(F)cc(F)c3)=NO2)C1 (mixture of isomers) , thanks. 80

What do you get for C=C[C@]1(C(=O)N[C@H]2C=C[C@H](C(=O)OC)C2)CC(c2cc(F)cc(F)c2)=NO1 ? 80

# iterate: C=CC1(C(=O)NC2C=CC(C(=O)N3CCCO3)C2)CC(c2cc(F)cc(F)c2)=NO1 (centres unmarked) [II-27] 90

// same read-out, input: N#Cc1cc(F)cc(C2=NOC(C(=O)N[C@H]3C=C[C@@H](C(=O)OCC(F)(F)F)C3)(C(F)(F)F)C2)c1 (some centres unmarked) 90

// same read-out, input: COC(=O)C1C=CC(NC(=O)C2(C(F)(F)F)CC(c3cccc(C#N)c3)=NO2)C1 (mixture of isomers) 90

And C=CC1(C(=O)NC2C=CC(C(=O)NC(C)(C)C(=O)OC)C2)CC(c2cc(F)cc(F)c2)=NO1 (centres unmarked) ? 80

---

- System: ECHCG
- ASSAY_SUMMARY: Post-emergence herbicidal action against ECHCG
- Format: in vivo, Echinochloa crus-galli
- SETUP_CONDITIONS: application rate 80 g/ha, rated visually after about 3 weeks
MEASUREMENT_NAME: Herbicidal action against [%] ECHCG (%)
Your answer should be a plain number; it is taken to be in %.

CC(C)(C)OC(=O)[C@@H]1C=C[C@H](NC(=O)C2(C)CC(c3cc(F)cc(F)c3)=NO2)C1 (stereo partly shown) :: 90
COC(=O)[C@@H]1C=C[C@H](NC(=O)C2(C)CC(c3cccc(F)c3)=NO2)C1 (stereo partly shown) :: 80
COC(=O)C1C=CC(NC(=O)C2(C(F)(F)F)CC(c3cc(Cl)cc(Cl)c3)=NO2)C1 (mixture of isomers) :: 90
O=C(OCc1ccccc1)C1C=CC(NC(=O)C2(C(F)(F)F)CC(c3cc(F)cc(F)c3)=NO2)C1 (mixture of isomers) :: 90
COC(=O)C1C=CC(NC(=O)C2(C(F)(F)F)CC(c3cc(C)cc(C(F)(F)F)c3)=NO2)C1 (mixture of isomers) :: 80
COC(=O)C1C=CC(NC(=O)C2(C(F)(F)F)CC(c3cc(C)cc(C)c3)=NO2)C1 (mixture of isomers) :: 90

# context switch: different compound, same Herbicidal action against [%] ECHCG
Could you tell me which Herbicidal action against [%] ECHCG is on file for C=CC1(C(=O)N[C@H]2CC=C(C(=O)OC)C2)CC(c2cc(F)cc(F)c2)=NO1 (stereo partly shown) ? 90
